The values you see were collected from ChEMBL document CHEMBL4316612.

Property: MIC; scope: individual molecules
tested on: Streptococcus mutans; assay: Antibacterial activity against Streptococcus mutans 3289 after 24 hrs by microtiter ELISA; assay type: functional; details: Streptococcus mutans, 3289, 24 h

- MOLECULE: "CN(C)C1=NC(c2cn(-c3ccc([N+](=O)[O-])cc3[N+](=O)[O-])nc2-c2ccccc2)N=C(N)N1 (stereo not drawn)"
  TARGET: "Streptococcus mutans"
  MIC: "64 µg/mL"
- MOLECULE: "CN(C)C1=NC(c2cn(-c3ccc([N+](=O)[O-])cc3)nc2-c2ccc(Cl)cc2Cl)N=C(N)N1 (stereo not drawn)"
  TARGET: "Streptococcus mutans"
  MIC: "4 µg/mL"
- MOLECULE: "COc1cccc(-c2nn(-c3ccc([N+](=O)[O-])cc3[N+](=O)[O-])cc2C2N=C(N)NC(N(C)C)=N2)c1 (stereo not drawn)"
  TARGET: "Streptococcus mutans"
  MIC: "64 µg/mL"
- MOLECULE: "CN(C)C1=NC(c2cn(-c3ccccc3)nc2-c2ccccc2)N=C(N)N1 (stereo not drawn)"
  TARGET: "Streptococcus mutans"
  MIC: "> 64 µg/mL"
- MOLECULE: "NC1=NC(c2cn(-c3ccccc3)nc2-c2cccc(Cl)c2)N=C(N2CCOCC2)N1 (stereo not drawn)"
  TARGET: "Streptococcus mutans"
  MIC: "32 µg/mL"
- MOLECULE: "CN(C)C1=NC(c2cn(-c3ccc([N+](=O)[O-])cc3[N+](=O)[O-])nc2-c2ccccc2Br)N=C(N)N1 (stereo not drawn)"
  TARGET: "Streptococcus mutans"
  MIC: "32 µg/mL"
- MOLECULE: "NC1=NC(c2cn(-c3ccc([N+](=O)[O-])cc3[N+](=O)[O-])nc2-c2ccccc2[N+](=O)[O-])N=C(N2CCOCC2)N1 (stereo not drawn)"
  TARGET: "Streptococcus mutans"
  MIC: "> 64 µg/mL"

Attention now turns to another entry.
Incoming: Give the reported MIC for CN(C)C1=NC(c2cn(-c3ccccc3)nc2-c2ccc(Br)cc2)N=C(N)N1 (stereo not drawn) (system: Streptococcus mutans).
Outgoing: 16 µg/mL

====

system: Staphylococcus aureus; test: Antibacterial activity against methicillin-resistant Staphylococcus aureus CCARM 3506 after 24 hrs by microtiter ELISA; type: functional; settings: CCARM 3506, 24 h
METRIC: log10(MIC) (log10 of the value in µg/mL)
Form field - Quantity: MIC; Unit: µg/mL; Scale: log10

Worked cases, log10(MIC) given:
- COMPOUND: "CN(C)C1=NC(c2cn(-c3ccccc3)nc2-c2ccccc2)N=C(N)N1 (configuration not stated)"
  log10(MIC): 1.51
- COMPOUND: "NC1=NC(c2cn(-c3ccc([N+](=O)[O-])cc3)nc2-c2ccc(Cl)cc2Cl)N=C(N2CCOCC2)N1 (configuration not stated)"
  log10(MIC): 0.30
- COMPOUND: "CN(C)C1=NC(c2cn(-c3ccc([N+](=O)[O-])cc3[N+](=O)[O-])nc2-c2ccccc2Br)N=C(N)N1 (configuration not stated)"
  log10(MIC): 1.51
- COMPOUND: "CN(C)C1=NC(c2cn(-c3ccc([N+](=O)[O-])cc3[N+](=O)[O-])nc2-c2cccc(Cl)c2)N=C(N)N1 (configuration not stated)"
  log10(MIC): 0.60
- COMPOUND: "NC1=NC(c2cn(-c3ccccc3)nc2-c2ccc(Cl)cc2)N=C(N2CCOCC2)N1 (configuration not stated)"
  log10(MIC): 1.20

Incoming: For the compound shown here, CN(C)C1=NC(c2cn(-c3ccc([N+](=O)[O-])cc3[N+](=O)[O-])nc2-c2ccc(Br)cc2)N=C(N)N1 (configuration not stated) , give the reported log10(MIC).
Outgoing: 0.60

Incoming: Follow-up entry: NC1=NC(c2cn(-c3ccccc3)nc2-c2cccc(Cl)c2)N=C(N2CCOCC2)N1 (configuration not stated)
Outgoing: 1.20

Incoming: For NC1=NC(c2cn(-c3ccc([N+](=O)[O-])cc3[N+](=O)[O-])nc2-c2ccc(Cl)cc2Cl)N=C(N2CCOCC2)N1 (configuration not stated) then?
Outgoing: 0.90

Incoming: Now consider `CCn1cc(C(=O)O)c(=O)c2cc(F)c(N3CCNCC3)cc21` and answer again.
Outgoing: 0.60

Incoming: And for CN(C)C1=NC(c2cn(-c3ccccc3)nc2-c2cccc(Cl)c2)N=C(N)N1 (configuration not stated) ?
Outgoing: 1.20

Incoming: Follow-up item: Cc1ccc(-c2nn(-c3ccc([N+](=O)[O-])cc3[N+](=O)[O-])cc2C2N=C(N)NC(N(C)C)=N2)cc1 (configuration not stated)
Outgoing: 0.90

Incoming: Next record, please: COc1c(N2CCNC(C)C2)c(F)cc2c(=O)c(C(=O)O)cn(C3CC3)c12 (configuration not stated)
Outgoing: 0.30

Incoming: Same for CN(C)C1=NC(c2cn(-c3ccccc3)nc2-c2ccc(Cl)cc2)N=C(N)N1 (configuration not stated)
Outgoing: 0.90

Incoming: Let us now turn to CN(C)C1=NC(c2cn(-c3ccc([N+](=O)[O-])cc3[N+](=O)[O-])nc2-c2ccccc2Cl)N=C(N)N1 (configuration not stated)
Outgoing: 1.81

Incoming: Further, for CN(C)C1=NC(c2cn(-c3ccc([N+](=O)[O-])cc3[N+](=O)[O-])nc2-c2ccc(Cl)cc2Cl)N=C(N)N1 (configuration not stated) ?
Outgoing: 0.60

====

tested on: Streptococcus mutans; assay: Antibacterial activity against Streptococcus mutans 3289 after 24 hrs by microtiter ELISA; format: functional; conditions: Streptococcus mutans, 3289, 24 h
Attribute: MIC

Previously resolved entries follow.
- COMPOUND: "CN(C)C1=NC(c2cn(-c3ccc([N+](=O)[O-])cc3[N+](=O)[O-])nc2-c2ccc(F)cc2)N=C(N)N1 (centres undefined)"
  TARGET: "Streptococcus mutans"
  RESULT: "32 µg/mL"
- COMPOUND: "NC1=NC(c2cn(-c3ccc([N+](=O)[O-])cc3)nc2-c2ccc(Cl)cc2Cl)N=C(N2CCOCC2)N1 (centres undefined)"
  TARGET: "Streptococcus mutans"
  RESULT: "8 µg/mL"
- COMPOUND: "NC1=NC(c2cn(-c3ccc([N+](=O)[O-])cc3[N+](=O)[O-])nc2-c2ccccc2F)N=C(N2CCOCC2)N1 (centres undefined)"
  TARGET: "Streptococcus mutans"
  RESULT: "> 64 µg/mL"

Turning now to a further record.
Incoming: For the compound CN(C)C1=NC(c2cn(-c3ccc([N+](=O)[O-])cc3[N+](=O)[O-])nc2-c2ccc(Cl)cc2Cl)N=C(N)N1 (centres undefined) , what MIC is on record?
Outgoing: 8 µg/mL

====

MIC overview
system: Streptococcus mutans; test: Antibacterial activity against Streptococcus mutans 3289 after 24 hrs by microtiter ELISA; assay type: functional; details: Streptococcus mutans, 3289, 24 h
I only need the number, in µg/mL, no unit after it.

- MOLECULE: "COc1c(N2C[C@@H]3CCCN[C@@H]3C2)c(F)cc2c(=O)c(C(=O)O)cn(C3CC3)c12 [MOXIFLOXACIN]"
  UNITS: "µg/mL"
  MIC: 0.25
- MOLECULE: "NC1=NC(c2cn(-c3ccccc3)nc2-c2ccc(Br)cc2)N=C(N2CCOCC2)N1 (centres undefined)"
  UNITS: "µg/mL"
  MIC: 32

Turning to the following molecule.
Incoming: Given the molecule CN(C)C1=NC(c2cn(-c3ccc([N+](=O)[O-])cc3[N+](=O)[O-])nc2-c2ccccc2F)N=C(N)N1 (centres undefined) , what is its reported MIC?
Outgoing: 64

====

Items are presented alongside their recorded MIC.
system: Streptococcus mutans; assay: Antibacterial activity against Streptococcus mutans 3289 after 24 hrs by microtiter ELISA; type: functional; settings: Streptococcus mutans, 3289, 24 h
Record the value in µg/mL, omitting the unit from your answer.

Reference set, count: 5
- MOLECULE: "Cc1ccc(-c2nn(-c3ccccc3)cc2C2N=C(N)NC(N(C)C)=N2)cc1 (stereo unspecified)"
  UNITS: "µg/mL"
  MIC: 64
- MOLECULE: "CN(C)C1=NC(c2cn(-c3ccc([N+](=O)[O-])cc3[N+](=O)[O-])nc2-c2ccc(Br)cc2)N=C(N)N1 (stereo unspecified)"
  UNITS: "µg/mL"
  MIC: 16
- MOLECULE: "NC1=NC(c2cn(-c3ccc([N+](=O)[O-])cc3)nc2-c2ccc(Cl)cc2Cl)N=C(NCCc2ccccc2)N1 (stereo unspecified)"
  UNITS: "µg/mL"
  MIC: 1
- MOLECULE: "Cc1ccc(-c2nn(-c3ccc([N+](=O)[O-])cc3[N+](=O)[O-])cc2C2N=C(N)NC(N(C)C)=N2)cc1 (stereo unspecified)"
  UNITS: "µg/mL"
  MIC: 16
- MOLECULE: "CN(C)C1=NC(c2cn(-c3ccc([N+](=O)[O-])cc3[N+](=O)[O-])nc2-c2cccc(Cl)c2)N=C(N)N1 (stereo unspecified)"
  UNITS: "µg/mL"
  MIC: 8

Consider the record given below.
Incoming: Can you share its MIC? I mean this molecule: CN(C)C1=NC(c2cn(-c3ccc([N+](=O)[O-])cc3[N+](=O)[O-])nc2-c2ccccc2Cl)N=C(N)N1 (stereo unspecified)
Outgoing: 64
